# protocol.description: Viability qHTS for spleen associated tyrosine kinase inhibitor (SYKi) drug resistant MV4-11 cells (AID 1963824); also: nearly all actives have a fitted effect of over 35% in size
# condition.summary: SYKi-resistant MV4-11 viability, CellTiter-Glo, 72 h; series mostly up to 45 µM
Inconclusive results are not listed. The source made the active and inactive calls. Calls follow the shape of the dose curve; as a rule, active = well fitted cell-killing curve with a large enough effect; inconclusive = small, poorly fitted or top-dose-only effect, or effect the other way; inactive = no such curve, though single readings can be large or run the other way.
Outcomes: active, inactive

{"compound": "COC1CC(O[C@H]2CC[C@]3(C=O)C4CC[C@]5(C)[C@@H](C6=CC(=O)OC6)CC[C@]5(O)[C@@H]4CC[C@@H]3C2)OC(C)C1O[C@@H]1O[C@H](CO)[C@@H](O[C@@H]2O[C@H](CO)[C@@H](O)[C@H](O)[C@H]2O)[C@H](O)[C@H]1O (stereo not given in full)", "group": "active"}
{"compound": "CCC(C)(C#N)O[C@@H]1O[C@H](CO)[C@@H](O)[C@H](O)[C@H]1O (stereo not given in full)", "group": "inactive"}
{"compound": "Oc1ccc2c(c1)C13CCCC[C@H]1[C@@H](C2)N(CC1CCC1)CC3", "group": "active"}
{"compound": "NC(=O)OCCCc1ccccc1", "group": "inactive"}
{"compound": "CN(C)[C@@H]1C(=O)C(C(N)=O)=C(O)[C@@]2(O)C(=O)C3=C(O)c4c(O)ccc(Cl)c4[C@@](C)(O)C3C[C@@H]12 (stereo not given in full)", "group": "inactive"}
{"compound": "O=C(CCl)c1ccc(Cl)cc1Cl", "group": "inactive"}
{"compound": "C[C@]12CC[C@@H](O)C[C@@H]1CC[C@@H]1[C@@H]2CC[C@]2(C)C(=O)[C@@H](Br)C[C@@H]12", "group": "active"}
{"compound": "Clc1ccc([C@]23CNC[C@H]2C3)cc1Cl", "group": "inactive"}
{"compound": "N#CC(O[C@@H]1O[C@H](CO)[C@@H](O)[C@H](O)[C@H]1O)c1ccccc1 (stereo not given in full)", "group": "inactive"}
{"compound": "CC[C@@H]1C[C@H]2CC[C@H](O2)[C@H](C)C(=O)O[C@@H](C)C[C@@H]2CC[C@@H](O2)[C@@H](C)C(=O)O[C@H](CC)C[C@H]2CC[C@H](O2)[C@H](C)C(=O)O[C@@H](C)C[C@@H]2CC[C@@H](O2)[C@@H](C)C(=O)O1", "group": "active"}
{"compound": "O=C(CCCCl)c1ccc(F)cc1", "group": "inactive"}
{"compound": "CCN(CC)CCc1c[nH]c2ccccc12", "group": "inactive"}
{"compound": "C[C@]12CC[C@H](O)C[C@H]1CC[C@@H]1[C@@H]2[C@H](O)C(=O)[C@]2(C)[C@@H](c3ccc(=O)oc3)CC[C@]12O", "group": "active"}
{"compound": "c1ccc(N2CCNCC2)cc1", "group": "inactive"}
{"compound": "CC(C)c1cccc(C(C)C)c1O", "group": "inactive"}
{"compound": "NNc1ccccc1", "group": "inactive"}
{"compound": "C=C(C)[C@H]1Cc2c(ccc3c2O[C@@H]2COc4cc(OC)c(OC)cc4[C@@H]2C3=O)O1", "group": "active"}
{"compound": "COCC1OC(=O)c2coc3c2C1(C)C1=C(C3=O)C2CCC(=O)C2(C)CC1O (stereo not given)", "group": "inactive"}
{"compound": "CCC(C(N)=O)N1CCCC1=O (stereo not given)", "group": "inactive"}
{"compound": "O=[N+]([O-])O[C@H]1CO[C@H]2[C@@H]1OC[C@H]2O[N+](=O)[O-]", "group": "inactive"}
{"compound": "O=C(NCCCNc1nc(Nc2ccc(N3CCOCC3)cc2)ncc1C1CC1)C1CCC1", "group": "active"}
{"compound": "c1ccc(C2CC2)c(OCC2=NCCN2)c1", "group": "inactive"}
{"compound": "Cc1c(N2C(=O)[C@@H]3[C@H](O)CCN3C2=O)ccc(C#N)c1Cl", "group": "inactive"}
{"compound": "[N-]=[N+]=CC(=O)OC[C@H](N)C(=O)O", "group": "inactive"}
{"compound": "C#CCO[C@H]1CN2CCC1CC2", "group": "inactive"}
{"compound": "CCC(C)/C=C(C)/C=C/C1=CC2=C(Cl)C(=O)C(C)(OC(C)=O)C(=O)C2=CO1 (stereo not given)", "group": "active"}
{"compound": "COC(=O)C(Cl)C(=O)OC", "group": "inactive"}
{"compound": "CC(C(=O)c1ccccc1)N(C)C (stereo not given)", "group": "inactive"}
{"compound": "CC1=CC2/C=C(\\C)CCC(O)C(O)/C=C/C(=O)C23C(=O)NC(CC(C)C)C3C1C (stereo not given)", "group": "active"}
{"compound": "C=C1[C@@]23C(=O)O[C@H](C)[C@]24O[C@@]2(C(=C)[C@]5(C=CC(=O)OC5(C)C)CC[C@]32C)[C@H](O)[C@@]1(C)OC4=O", "group": "inactive"}
{"compound": "COc1ccc(C(c2ccc(OC)cc2)C(Cl)(Cl)Cl)cc1", "group": "active"}
{"compound": "CN1CCc2cc3c(cc2C1C1OC(=O)c2c1ccc1c2OCO1)OCO3 (stereo not given)", "group": "inactive"}
{"compound": "N=c1c2c(-c3ccccc3)c(-c3ccccc3)n(Cc3ccccc3)c2ncn1C1CCC(O)CC1 (stereo not given)", "group": "active"}
{"compound": "CC(C)[C@H]1C(=O)N[C@H](CO)Cc2c[nH]c3cccc(c23)N1C", "group": "active"}
{"compound": "COC1CC(O[C@H]2CC[C@@]3(C)C(CCC4C3CC[C@]3(C)C(C5=CC(=O)OC5)CCC43O)C2)OC(C)C1OC1OC(COC2OC(CO)C(O)C(O)C2O)C(O)C(O)C1O (stereo not given in full)", "group": "active"}
{"compound": "CCN(C(C)=O)c1cccc(-c2ccnc3c(C#N)cnn23)c1", "group": "inactive"}
{"compound": "CC(=O)OC[C@H]1O[C@@H]([S-])[C@H](OC(C)=O)[C@@H](OC(C)=O)[C@@H]1OC(C)=O.CC[PH+](CC)CC.[Au]", "group": "active"}
{"compound": "O=C(O)c1ccc(=O)[nH]c1", "group": "inactive"}
{"compound": "CCC(=O)OC1(c2ccccc2)CCN(C)CC1", "group": "inactive"}
{"compound": "CCC1(c2ccccc2)CCC(=O)NC1=O (stereo not given)", "group": "active"}

Data origin: PubChem BioAssay (NCATS)
